Cited source for all entries: patent US20050164933A1

Molecular target: GST-PAR3 PDZ domain 3 fusion protein (human), Q8TEW0
Sequence (Q8TEW0 other isoform, or with tags, fused parts or gaps): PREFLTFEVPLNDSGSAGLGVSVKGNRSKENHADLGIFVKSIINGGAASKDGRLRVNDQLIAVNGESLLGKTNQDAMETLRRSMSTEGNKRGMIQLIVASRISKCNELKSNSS
Test: G3 assay titration, immobilised GST-PDZ
No end group written: not given here.
METRIC: EC50 (nM)
# output: bare number, implied unit nM

// query # input binder: YGRKKRRQRRRSTNSVRLML (not fully specified) ; wanted: its EC50
// result 18
